All values here come from patent US9920010B2.

Reported EC50 by item:
# target_system: UniProtKB P25106
# experimental_details: PathHunter CHO-K1 CXCR7 b-arrestin recruitment assay (CXCR7 agonistic activity)
# settings: PathHunter CHO-K1 CXCR7 b-arrestin cell line
# unit: nM | format: bare number

Query: Under UniProtKB P25106, report EC50 for O=C(CNc1cccc2c1CCN(CC1CC1)C2)N(CCN1CCOCC1)Cc1ccccc1C(F)(F)F [Example 64]
Reply: 8

Query: Under UniProtKB P25106, report EC50 for CN1CCC(N(Cc2ccccc2C(F)(F)F)C(=O)CNc2cccc3c2CCN(CC2CC2)C3)CC1 [Example 105]
Reply: 9

Query: Under UniProtKB P25106, report EC50 for CN(C)CCN(Cc1ccncn1)C(=O)CNc1cccc2c1CCN(CC1CC1)C2 [Example 255]
Reply: 390

Query: Under UniProtKB P25106, report EC50 for CN(C)CCN(Cc1ccccc1C(F)(F)F)C(=O)CNc1cccc2c1C(C)(C)CN(CC1CC1)C2 [Example 91]
Reply: 1

====

# target_system: CXCR7 (Homo sapiens, UniProt P25106)
# Sequence (P25106 whole entry): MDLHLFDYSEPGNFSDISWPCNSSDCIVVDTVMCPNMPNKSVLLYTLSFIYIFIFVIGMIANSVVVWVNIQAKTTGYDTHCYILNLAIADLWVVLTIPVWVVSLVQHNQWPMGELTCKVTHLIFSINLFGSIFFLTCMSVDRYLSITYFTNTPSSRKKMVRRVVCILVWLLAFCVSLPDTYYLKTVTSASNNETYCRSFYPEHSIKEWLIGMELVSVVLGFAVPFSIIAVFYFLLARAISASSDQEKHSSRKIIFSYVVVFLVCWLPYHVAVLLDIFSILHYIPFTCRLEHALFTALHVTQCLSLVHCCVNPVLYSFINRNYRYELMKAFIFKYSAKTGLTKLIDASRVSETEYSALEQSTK
# Sequence (P32121 whole entry partner): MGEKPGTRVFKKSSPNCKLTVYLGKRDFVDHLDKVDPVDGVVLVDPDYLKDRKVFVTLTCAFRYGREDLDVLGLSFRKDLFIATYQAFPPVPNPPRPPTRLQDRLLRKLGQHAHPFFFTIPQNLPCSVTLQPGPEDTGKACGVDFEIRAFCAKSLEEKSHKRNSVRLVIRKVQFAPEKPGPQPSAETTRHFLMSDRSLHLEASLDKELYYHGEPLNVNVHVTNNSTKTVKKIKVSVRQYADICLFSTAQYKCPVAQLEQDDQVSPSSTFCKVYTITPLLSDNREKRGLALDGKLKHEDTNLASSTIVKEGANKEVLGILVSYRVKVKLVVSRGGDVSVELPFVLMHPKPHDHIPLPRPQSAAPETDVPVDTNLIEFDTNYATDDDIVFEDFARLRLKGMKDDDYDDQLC
# experimental_details: PathHunter CHO-K1 CXCR7 b-arrestin recruitment assay (CXCR7 agonistic activity)
# settings: PathHunter CHO-K1 CXCR7 b-arrestin cell line
parameter_measured: pEC50
Reminder that pEC50 means the negative base-10 logarithm of the concentration expressed in mol/L.

>>> df
                              sample_smiles  measured_number
0  C#CCOC(=O)N1CCc2c(cccc2NCC(=O)N(CCNC)Cc2ncccc2C(F)(F)F)C1             7.54
1  CNCCN(Cc1ccccc1C(F)(F)F)C(=O)CNc1cccc2c1CCN(C(=O)C1CC1)C2             8.15
2  O=C1CC(CN(Cc2ccccc2C(F)(F)F)C(=O)CNc2cccc3c2CCN(CC2CC2)C3)=CC=N1             6.42
3  CN(C)CCN(Cc1ccccc1C(F)(F)F)C(=O)CNc1ccc(F)c2c1CCN(CC1CC1)C2             7.64
4  CCOC(=O)N1CCc2c(cccc2NCC(=O)N(CCNC)Cc2ccccc2C(F)(F)F)C1             7.49

Query: Give recorded pEC50. CCC(=O)N1CCc2cccc(NCC(=O)N(CCN(C)C)Cc3ccccc3)c2C1
Reply: 7.15

Query: Give recorded pEC50. C=CCN(C)CCN(Cc1ccccc1C(F)(F)F)C(=O)CCc1cccc2c1CCN(CC=C)C2
Reply: 7.89

Query: Give recorded pEC50. CN(C)CCN(Cc1ccccc1)C(=O)COc1cccc2c1CCN(CC1CC1)C2
Reply: 8.22

====

# target_system: CXCR7 (Homo sapiens)
# experimental_details: PathHunter CHO-K1 CXCR7 b-arrestin recruitment assay (CXCR7 agonistic activity)
# settings: PathHunter CHO-K1 CXCR7 b-arrestin cell line
Reported log10 EC50 by item:
Log scale reminder: EC50 in nM, then log10 taken.

Solved entries:
>>> print(df.to_string())
                                   compound  parameter_measured  measured_number
0  O=C(CNc1cccc2c1CCN(CC1CC1)C2)N(Cc1ccccc1C(F)(F)F)CC1COCCO1 (centres unmarked)          log10 EC50             1.11
1  CNCCN(Cc1ncccc1C(F)(F)F)C(=O)CNc1cccc2c1CCN(C(=O)C1CCOC1)C2 (racemic)          log10 EC50             1.18
2  CCOC(=O)N1CCc2c(cccc2NCC(=O)N(CCNC)Cc2ncccc2C(F)(F)F)C1          log10 EC50             1.32
3  O=C(/C=C/c1cccc2c1CCN(C(=O)[C@H]1C[C@H]1F)C2)N(CCN1CCC(F)(F)CC1)Cc1ncccc1Cl (racemic)          log10 EC50             1.98

Query: Under CXCR7 (Homo sapiens), report log10 EC50 for Cc1cccnc1CN(CCC(C)(C)C)C(=O)CNc1cccc2c1CCN(CC1CC1)C2
Reply: 1.23

Query: Under CXCR7 (Homo sapiens), report log10 EC50 for CCNCCN(Cc1ccccc1C(F)(F)F)C(=O)CNc1cccc2c1CCN(CC1CC1)C2
Reply: 0.48

Query: Under CXCR7 (Homo sapiens), report log10 EC50 for NCCN(Cc1ccccc1C(F)(F)F)C(=O)CNc1cccc2c1CCN(CC1CC1)C2
Reply: 1.00

Query: Under CXCR7 (Homo sapiens), report log10 EC50 for CCOC(=O)CN(Cc1ccccc1)C(=O)/C=C/c1cccc2c1CCN(CC1CC1)C2
Reply: 1.34

Query: Under CXCR7 (Homo sapiens), report log10 EC50 for CC(C)OC(=O)N1CCc2c(cccc2NCC(=O)N(CCN(C)C)Cc2ccccc2)C1
Reply: 2.00

Query: Under CXCR7 (Homo sapiens), report log10 EC50 for CCN1Cc2cccc(NCC(=O)N(CCN3CCCC3)Cc3ccccc3C(F)(F)F)c2CC1=O
Reply: 1.38

Query: Under CXCR7 (Homo sapiens), report log10 EC50 for CN(C)CCN(Cc1ccccc1)C(=O)CNc1cccc2c1CCN(CC(F)(F)F)C2
Reply: 2.27

Query: Under CXCR7 (Homo sapiens), report log10 EC50 for CC(C)CCN(Cc1ccccc1)C(=O)CNc1cccc2c1CN(C)CC2
Reply: 2.15

Query: Under CXCR7 (Homo sapiens), report log10 EC50 for CCC(=O)N1CCc2c(CCC(=O)N(CCN(C)C)Cc3ccccc3)cccc2C1
Reply: 1.66

Query: Under CXCR7 (Homo sapiens), report log10 EC50 for CCC(=O)N1CCc2c(cccc2NCC(=O)N(CCc2ccccc2)CCN(C)C)C1
Reply: 2.13

Query: Under CXCR7 (Homo sapiens), report log10 EC50 for CN(C)CCN(Cc1ccnn1C)C(=O)CNc1cccc2c1CCN(CC1CC1)C2
Reply: 2.57

Query: Under CXCR7 (Homo sapiens), report log10 EC50 for CCN1CCc2cccc(NCC(=O)N(CCc3cccc(C(F)(F)F)c3)CCN(C)C)c2C1
Reply: 2.06

Query: Under CXCR7 (Homo sapiens), report log10 EC50 for CCN1CCc2cccc(NCC(=O)N(Cc3ccccc3C(F)(F)F)C3CCN(C)CC3)c2C1
Reply: 1.61

Query: Under CXCR7 (Homo sapiens), report log10 EC50 for CCC(=O)N1CCc2c(cccc2NCC(=O)N(CCN(C)C)Cc2ccccc2C(F)(F)F)C1
Reply: 0.60

Query: Under CXCR7 (Homo sapiens), report log10 EC50 for O=C(CNc1cccc2c1CCN(CC1CC1)C2)N(Cc1ccccc1C(F)(F)F)C1CCC(O)CC1 (centres unmarked)
Reply: 1.43

Query: Under CXCR7 (Homo sapiens), report log10 EC50 for CN(C)CCN(Cc1ncccc1Cl)C(=O)CNc1cccc2c1CCN(CC1CC1)C2
Reply: 0.60

Query: Under CXCR7 (Homo sapiens), report log10 EC50 for NC(=O)CCN(Cc1ccccc1)C(=O)CNc1cccc2c1CCN(CC1CC1)C2
Reply: 2.52

====

# target_system: CXCR7 (Homo sapiens)
# experimental_details: PathHunter CHO-K1 CXCR7 b-arrestin recruitment assay (CXCR7 agonistic activity)
# settings: PathHunter CHO-K1 CXCR7 b-arrestin cell line
# Protocol: The CXCl12 receptor and CXCR7 agonistic activities of the compounds of formula (I) are determined in accordance with the following experimental method. The assay is using the PathHunter™ CHO-K1 CXCR7 b-arrestin cell line from DiscoverX. The system is based on the Enzyme Fragment Complementation Technology. Two complementing fragments of the b-galactosidase enzyme are expressed within stably transfected cells. […]
Could you mark each record criterion met if its EC50 falls strictly under 40 nM, and criterion not met if it equals or exceeds it?

Consider the worked cases shown below.
In [3]: df
Out[3]:
                                   compound  qualitative_label
0  CN(C)CCN(Cc1ccccc1Cl)C(=O)CNc1cccc2c1CN(CC1CC1)CC2(C)C  criterion not met
1  CN(C)CCN(Cc1ccccc1)C(=O)/C=C/c1cccc2c1CCN(C)C2      criterion met
2  CN(C)CCN(Cc1ccccc1C(F)(F)F)C(=O)CNc1cccc2c1CN(CC(F)(F)F)CC2  criterion not met
3  CN1CCCC(N(Cc2ccccc2C(F)(F)F)C(=O)CNc2cccc3c2CCN(C(=O)OC(C)(C)C)C3)C1 (racemic)  criterion not met

Query: Is EC50 of CCC(=O)N1CCc2c(cccc2NCC(=O)N(CCN(C)C)Cc2ccccc2F)C1 strictly below 40 nM?
Reply: criterion met

Query: Is EC50 of CN(C)CCN(Cc1ccccc1C(F)(F)F)C(=O)CCc1cccc2c1CCN(CC1CC1)C2 strictly below 40 nM?
Reply: criterion met

Query: Is EC50 of C=CCOC(=O)N1CCc2c(cccc2NCC(=O)N(CCNC)Cc2ccccc2C(F)(F)F)C1 strictly below 40 nM?
Reply: criterion met

Query: Is EC50 of CN(C)CCN(Cc1ccccc1C(F)(F)F)C(=O)CNc1ccc(Cl)c2c1CCN(CC1CC1)C2 strictly below 40 nM?
Reply: criterion not met

Query: Is EC50 of CN(C)CCN(Cc1cnc(N(C)C)nc1)C(=O)CNc1cccc2c1CCN(CC1CC1)C2 strictly below 40 nM?
Reply: criterion not met
